assay: Toxicity liver stage against HepG2, at 10uM; assay type: cell-based; parameters: test concentration 10 uM, cell line HepG2-A16-CD81EGFP; conditions: human, HepG2-A16-CD81EGFP cells; read-out: INHIBITION
quantity-name: cytotoxicity at 10 µM (%)
# value in %; strip the unit string

- CC1(C)OC(=O)N(CC(=O)N2CCC(c3ccccc3Cl)C2)C1=O (stereo unspecified): -21.4
- COCCn1c(=O)n(Cc2ccccc2C)c2cc(C(=O)O)ccc21: -1.79
- Cc1cccnc1CNC(=O)CC1C(=O)NCCN1CC(C)(C)C (stereo unspecified): 5.48
- Cc1ncsc1C(=O)NC1CCN(Cc2cccnc2)CC1: -7.49
- COc1c(CNC(c2nccn2C)C(C)C)c(C)nn1C (stereo unspecified): -7.46

In: Consider the compound `Cc1nn(C)cc1-c1nn2c(C(F)(F)F)nnc2s1` and give its measured cytotoxicity at 10 µM.
Out: 2.48

---

assay: Toxicity liver stage against HepG2, at 10uM; assay type: cell-based; design: test concentration 10 uM, cell line HepG2-A16-CD81EGFP; settings: human, HepG2-A16-CD81EGFP cells; read-out: INHIBITION
Below, each entry is listed with its recorded cytotoxicity at 10 µM.
# value in %; strip the unit string

// known answers, use as guide
• Cn1cc(C(=O)Nc2ccc3c(c2)CN(C(=O)C2CC2)CC3)nn1 = 4.59
• O=C(NCc1cccs1)NCC(O)c1ccoc1 (stereo unspecified) = -11.9
• CC(C)C(=O)N1CCN(C(=O)c2cc(C(C)C)on2)[C@H]2CS(=O)(=O)C[C@H]21 = -19

In: Consider the compound `CC(C)CN1CCN(C)C2(CCN(c3nccs3)CC2)C1=O` and give its measured cytotoxicity at 10 µM.
Out: -5.4

In: Consider the compound `CC(=O)N1CCN(C(=O)c2snnc2C)[C@H]2CS(=O)(=O)C[C@H]21` and give its measured cytotoxicity at 10 µM.
Out: -0.145

In: Consider the compound `CC(C)CCNC(=O)Cc1cnc(-n2cccc2)s1` and give its measured cytotoxicity at 10 µM.
Out: -2.49

---

Below, each entry is listed with its recorded cytotoxicity at 10 µM.
assay: Toxicity liver stage against HepG2, at 10uM; type: cell-based; design: test concentration 10 uM, cell line HepG2-A16-CD81EGFP; details: human, HepG2-A16-CD81EGFP cells; read-out: INHIBITION
# value in %; strip the unit string

- CN(C)c1ccc(C(=O)N2CCN(Cc3cscn3)CC2)cc1F: -11.7
- COCCN1CCO[C@@H]2CN(C(=O)NCc3ccccc3)CC[C@@H]2C1: 3.23
- CCCn1cc(CN2CCOCC2c2[nH]ncc2C)cn1 (stereo unspecified): 0.325

In: Consider the molecule `CN1CCO[C@@H]2CN(C(=O)NCc3ccccc3)CC[C@@H]2C1` and give its measured cytotoxicity at 10 µM.
Out: -104

In: Consider the molecule `O=C(Cn1cccn1)N1CCC(c2nnc(-c3ccsc3)o2)CC1` and give its measured cytotoxicity at 10 µM.
Out: 6.88

In: Consider the molecule CC(C(=O)N1CCOCC1)N1CCN(Cc2nccn2C)CC1 (stereo unspecified) and give its measured cytotoxicity at 10 µM.
Out: -1.71

In: Consider the molecule `Cc1cccc(C2(O)CCN(C(=O)c3ccccn3)CC2)c1C` and give its measured cytotoxicity at 10 µM.
Out: -0.823

In: Consider the molecule Cn1nc(C2CNCCO2)cc1CCOc1ccc(C(F)(F)F)cc1 (stereo unspecified) and give its measured cytotoxicity at 10 µM.
Out: -7.54

---

assay: Toxicity liver stage against HepG2, at 10uM; type: cell-based; design: test concentration 10 uM, cell line HepG2-A16-CD81EGFP; conditions: human, HepG2-A16-CD81EGFP cells; read-out: INHIBITION
quantity-name: cytotoxicity at 10 µM (%)
# value in %; strip the unit string

// known answers, use as guide
* C[C@H]1C[C@H]2CN(S(=O)(=O)c3ccc(F)cc3)CC[C@H]2O1 | 1.79
* CS(=O)(=O)NC1CCN(C(=O)c2ccc3ccccc3c2)C1 (stereo unspecified) | -9.14
* CCc1nnc2n1CCN(CC(O)c1ccc3c(c1)OCCO3)C2 (stereo unspecified) | -7.3
* Nc1nc(C2CCN(C(=O)c3cnco3)CC2)cs1 | -3
* O=C(O)c1c(-c2cncnc2)ncc2c1CCN(CC1CCOC1)C2 (stereo unspecified) | -102

Note: attention shifts to another entry.
In: Consider the compound `CN1C[C@@H](N)C[C@H]1c1nc(-c2ccc3c(c2)OCO3)no1` and give its measured cytotoxicity at 10 µM.
Out: -3.75

---

experiment: Toxicity liver stage against HepG2, at 10uM; assay type: cell-based; design: test concentration 10 uM, cell line HepG2-A16-CD81EGFP; conditions: human, HepG2-A16-CD81EGFP cells; read-out: INHIBITION
Below, each entry is listed with its recorded cytotoxicity at 10 µM.
# value in %; strip the unit string

// known answers, use as guide
* c1cc(CN2CCC(c3ccnc4nccn34)C2)ccn1 (stereo unspecified) | 1.58
* Cc1ccc2c(c1)C(=O)NCC1(CCN(C(=O)c3cc(C)no3)CC1)O2 | -20.8

In: Consider the compound CC(N)C(=O)N1CCC(Oc2cccc(C(F)(F)F)c2)CC1 (stereo unspecified) and give its measured cytotoxicity at 10 µM.
Out: -8.54

In: Consider the compound `O=C(NC1CC1)N1CCc2ccc(=O)n(CCN3CCCC3)c2CC1` and give its measured cytotoxicity at 10 µM.
Out: -0.603

In: Consider the compound Cc1cc2n(n1)CC(CNC1CCN(Cc3ccccc3C)CC1)CN2 (stereo unspecified) and give its measured cytotoxicity at 10 µM.
Out: 3.69

In: Consider the compound CCCNC(=O)c1nn(CC)cc1NC(=O)C(C)n1ncc(Cl)c1C (stereo unspecified) and give its measured cytotoxicity at 10 µM.
Out: 7.19

---

assay: Toxicity liver stage against HepG2, at 10uM; type: cell-based; design: test concentration 10 uM, cell line HepG2-A16-CD81EGFP; details: human, HepG2-A16-CD81EGFP cells; read-out: INHIBITION
Below, each entry is listed with its recorded cytotoxicity at 10 µM.
# value in %; strip the unit string

In: Consider the compound COc1ccc2c(c1)C(C(=O)N(C)CCn1ccnc1C)CC(=O)N2 (stereo unspecified) and give its measured cytotoxicity at 10 µM.
Out: -44.8

---

assay: Toxicity liver stage against HepG2, at 10uM; type: cell-based; set-up: test concentration 10 uM, cell line HepG2-A16-CD81EGFP; details: human, HepG2-A16-CD81EGFP cells; read-out: INHIBITION
quantity-name: cytotoxicity at 10 µM (%)
# value in %; strip the unit string

• Cc1cc(NC(=O)NCC2COc3ccccc3C2)no1 (stereo not given) = -9.47
• O=C(Nc1cccc(OCC(F)F)n1)c1ccncc1 = -6.02
• CSCC(C)(O)CNC(=O)c1cc(Br)ccc1Cl (stereo not given) = -25.1
• Cc1cc(-c2nn(C)c(Cl)c2CN2CCOCC2CC(N)=O)no1 (stereo not given) = 3.3
• COCCC(=O)NCCc1nc(N(C)C)ncc1-c1ccncc1 = 1.68
• Cc1nnc(N2CCCC3(CN(c4cccc(F)c4)CCO3)C2)o1 (stereo not given) = 0.777

Note: attention shifts to another entry.
In: Consider the molecule `CNC(=O)NC(=O)CCSc1ccccc1Cl` and give its measured cytotoxicity at 10 µM.
Out: -5.13

---

Below, each entry is listed with its recorded cytotoxicity at 10 µM.
assay: Toxicity liver stage against HepG2, at 10uM; type: cell-based; design: test concentration 10 uM, cell line HepG2-A16-CD81EGFP; settings: human, HepG2-A16-CD81EGFP cells; read-out: INHIBITION
State the value with its unit after it.

// known answers, use as guide
• Cn1ccnc(Sc2cccc(C#N)c2)c1=O = 4.64%
• O=C1NC2(CCN(C/C=C/c3ccccc3)CC2)CC1c1ccccc1 (configuration not stated) = -47.1%
• CCCN(CC(=O)NC)C(=O)c1ccc(-c2ccsc2)nc1C = -14.3%
• Cc1cc(NCc2csc(-c3ccco3)n2)ccc1C(N)=O = 20.3%
• CC(Oc1ccccc1C(F)(F)F)C(=O)NCCCC(N)=O (configuration not stated) = -1.73%

In: Consider the compound `Cc1cc(C(=O)NCc2ccnc(N3CCOCC3)c2)c(C)s1` and give its measured cytotoxicity at 10 µM.
Out: -0.426%

In: Consider the compound C1CCCN(C2CCCN(Cc3noc(C4CC4)n3)C2)CC1 (configuration not stated) and give its measured cytotoxicity at 10 µM.
Out: -8.84%

In: Consider the compound `CN(C)C(=O)Cc1ccc(NC(=O)NC2CCCC2)cc1` and give its measured cytotoxicity at 10 µM.
Out: -1.92%

In: Consider the compound `COc1ccccc1OC1CN(Cc2ccc(C(=O)O)cc2)C1` and give its measured cytotoxicity at 10 µM.
Out: -8.98%

In: Consider the compound `C1=C(c2c[nH]c3ncccc23)CCN(Cc2nnc(C3CC3)o2)C1` and give its measured cytotoxicity at 10 µM.
Out: 30.7%

In: Consider the compound `Cc1ccc(N2CC[C@@H]3CN(Cc4cccc(C)n4)C[C@@H]3C2)nn1` and give its measured cytotoxicity at 10 µM.
Out: 6.34%

In: Consider the compound `O=C1CCC(=O)N1CCn1nnc(-c2ccc(Br)cc2)n1` and give its measured cytotoxicity at 10 µM.
Out: 4.26%

The origin of these recorded values is ChEMBL document CHEMBL4513216.
